# Test system: MV4,11 cells
# assay.text: FLT3 assay using MV4,11 cells (cellular proliferation, MTS)
# Format: cell-based, human
# measurement.conditions: cell assay code CS0001
assay.endpoint: Cell Assay: CS0001:IC50

Before answering, review these 4 worked examples.
Q: Recorded Cell Assay: CS0001:IC50 of COc1cccc(COc2ccc(NC(=O)Nc3cc(C(C)(C)C)on3)cc2)c1 [Compound G13] , please.
Ans: + + + +

Q: Recorded Cell Assay: CS0001:IC50 of CC(C)(C)c1noc(-c2ccc(NC(=S)Nc3cc(C(C)(C)C)on3)cc2)n1 [Compound P6] , please.
Ans: + + +

Q: Recorded Cell Assay: CS0001:IC50 of CC(=O)c1c[nH]c(C(=O)Nc2ccc(NC(=O)Nc3cc(C(C)(C)C)on3)cc2)c1 [Compound N43] , please.
Ans: + + +

Q: Recorded Cell Assay: CS0001:IC50 of CC(C)(C)c1cc(NC(=O)Nc2ccc(NC(=O)c3ccc(Cl)cc3)cc2)no1 [Compound N26] , please.
Ans: + +

Next:
Q: Recorded Cell Assay: CS0001:IC50 of CCOC(=O)CCc1c(C)[nH]c(C(=O)Nc2ccc(NC(=O)Nc3cc(C(C)(C)C)on3)cc2)c1C [Compound N83] , please.
Ans: + + +

Q: Recorded Cell Assay: CS0001:IC50 of CC1CN(CCOc2ccc(NC(=O)Nc3cc(C(C)(C)C)on3)cc2)CCN1 (centres unmarked) [Compound G46] , please.
Ans: + +

----------
# system: FLT3 (Homo sapiens, UniProt P36888)
# Construct: FLT3(DKIN); made in house
# Sequence (P36888 610-943 limits assumed): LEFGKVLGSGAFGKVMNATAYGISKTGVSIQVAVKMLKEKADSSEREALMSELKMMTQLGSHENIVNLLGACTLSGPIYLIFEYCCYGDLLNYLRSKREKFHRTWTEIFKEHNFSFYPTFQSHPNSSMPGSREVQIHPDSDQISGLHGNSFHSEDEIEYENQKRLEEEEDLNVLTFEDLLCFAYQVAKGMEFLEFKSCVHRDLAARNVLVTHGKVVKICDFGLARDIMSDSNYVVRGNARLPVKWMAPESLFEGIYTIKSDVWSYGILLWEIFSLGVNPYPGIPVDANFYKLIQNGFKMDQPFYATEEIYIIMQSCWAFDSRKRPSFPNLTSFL
# assay.text: Binding constant (Kd) measurement, phage-displayed kinase competition binding assay
# measurement.conditions: FLT3(DKIN) construct
assay.endpoint: Binding Assay: FLT3(DKIN)

Before answering, review these 5 worked examples.
Q: Recorded Binding Assay: FLT3(DKIN) of CC(C)(C)c1cc(NC(=O)Nc2ccc(NC(=O)c3ccc(Br)cc3)cc2)no1 [Compound N27] , please.
Ans: + +

Q: Recorded Binding Assay: FLT3(DKIN) of CC(C)(C)c1cc(NC(=O)Nc2ccc(NC(=O)C(N)Cc3ccccc3F)cc2)no1 (stereo not shown) [Compound N42] , please.
Ans: + + +

Q: Recorded Binding Assay: FLT3(DKIN) of CC(C)(C)c1cc(NC(=O)Nc2ccc(OCCc3ccccn3)cc2)no1 [Compound G27] , please.
Ans: + + + +

Q: Recorded Binding Assay: FLT3(DKIN) of CC(C)(C)c1cc(NC(=O)Nc2ccc(OCCCc3ccncc3)cc2)no1 [Compound G1] , please.
Ans: + + + +

Q: Recorded Binding Assay: FLT3(DKIN) of Cc1ccc(S(=O)(=O)Nc2ccc(NC(=O)Nc3cc(C(C)(C)C)on3)cc2)cc1 [Compound V2] , please.
Ans: + +

Next:
Q: Recorded Binding Assay: FLT3(DKIN) of CC(C)(C)c1cc(NC(=O)Nc2ccc(NS(=O)(=O)c3ccccc3)cc2)no1 [Compound V1] , please.
Ans: + +

Q: Recorded Binding Assay: FLT3(DKIN) of CC(C)(C)c1cc(NC(=O)Nc2ccc(OCC(O)CO)cc2)no1 (stereo not shown) [Compound G28] , please.
Ans: + + + +

----------
# system: FLT3 (Homo sapiens, UniProt P36888)
# Construct: FLT3(DKIN); made in house
# Sequence (P36888 610-943 limits assumed): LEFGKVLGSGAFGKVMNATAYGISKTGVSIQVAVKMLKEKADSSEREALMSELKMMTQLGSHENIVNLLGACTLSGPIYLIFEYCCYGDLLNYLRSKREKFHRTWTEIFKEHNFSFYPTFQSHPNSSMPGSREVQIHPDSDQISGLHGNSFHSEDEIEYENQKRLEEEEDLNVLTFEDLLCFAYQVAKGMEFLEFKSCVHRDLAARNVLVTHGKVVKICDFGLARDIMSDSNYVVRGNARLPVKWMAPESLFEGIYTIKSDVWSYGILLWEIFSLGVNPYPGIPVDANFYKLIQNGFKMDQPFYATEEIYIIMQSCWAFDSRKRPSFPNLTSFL
# assay.text: Binding constant (Kd) measurement, phage-displayed kinase competition binding assay
# measurement.conditions: FLT3(DKIN) construct
assay.endpoint: Binding Assay: FLT3(DKIN)

Q: Value wanted: Binding Assay: FLT3(DKIN) (FLT3 (Homo sapiens, UniProt P36888)) of entry CSc1ccc(NC(=O)Nc2cc(C(C)(C)C)no2)cc1 [Compound A39]
Ans: + + +

Q: Value wanted: Binding Assay: FLT3(DKIN) (FLT3 (Homo sapiens, UniProt P36888)) of entry Cc1ccc(-n2nc(C(C)(C)C)cc2NC(=O)Nc2ccc(OCCN3CCOC(CO)C3)c3ccccc23)cc1 (centres unmarked) [Compound G38]
Ans: + + + +

Q: Value wanted: Binding Assay: FLT3(DKIN) (FLT3 (Homo sapiens, UniProt P36888)) of entry COc1ccc(NC(=O)Nc2cc(C(F)(F)F)cc(Cl)n2)cc1 [Compound Z71]
Ans: + + + +

Q: Value wanted: Binding Assay: FLT3(DKIN) (FLT3 (Homo sapiens, UniProt P36888)) of entry Cc1ccc(C(=O)Nc2ccc(NC(=O)Nc3cc(C(C)(C)C)on3)cc2)cc1 [Compound N92]
Ans: + + + +

Q: Value wanted: Binding Assay: FLT3(DKIN) (FLT3 (Homo sapiens, UniProt P36888)) of entry O=C(Nc1ccc(Cl)cc1)Nc1cc(C(F)(F)F)cc(Cl)n1 [Compound Z76]
Ans: + + +

Q: Value wanted: Binding Assay: FLT3(DKIN) (FLT3 (Homo sapiens, UniProt P36888)) of entry O=C(Nc1ccc(Br)cc1)Nc1cc(C(F)(F)F)cc(Cl)n1 [Compound Z72]
Ans: + + +

Q: Value wanted: Binding Assay: FLT3(DKIN) (FLT3 (Homo sapiens, UniProt P36888)) of entry CC(C)(C)c1cc(NC(=O)Nc2ccc(Cl)cc2Cl)no1 [Compound A7]
Ans: + + +

Q: Value wanted: Binding Assay: FLT3(DKIN) (FLT3 (Homo sapiens, UniProt P36888)) of entry Cc1nnsc1C(=O)Nc1ccc(NC(=O)Nc2cc(C(C)(C)C)on2)cc1 [Compound N18]
Ans: + + +

Next:
Q: Value wanted: Binding Assay: FLT3(DKIN) (FLT3 (Homo sapiens, UniProt P36888)) of entry CC(C)(C)c1cc(NC(=O)Nc2ccc(NC(=O)c3cnc4cc(C(F)(F)F)ccc4c3O)cc2)no1 [Compound N146]
Ans: + + +

----------
# system: FLT3 (Homo sapiens, UniProt P36888)
# Construct: FLT3(DKIN); made in house
# Sequence (P36888 610-943 limits assumed): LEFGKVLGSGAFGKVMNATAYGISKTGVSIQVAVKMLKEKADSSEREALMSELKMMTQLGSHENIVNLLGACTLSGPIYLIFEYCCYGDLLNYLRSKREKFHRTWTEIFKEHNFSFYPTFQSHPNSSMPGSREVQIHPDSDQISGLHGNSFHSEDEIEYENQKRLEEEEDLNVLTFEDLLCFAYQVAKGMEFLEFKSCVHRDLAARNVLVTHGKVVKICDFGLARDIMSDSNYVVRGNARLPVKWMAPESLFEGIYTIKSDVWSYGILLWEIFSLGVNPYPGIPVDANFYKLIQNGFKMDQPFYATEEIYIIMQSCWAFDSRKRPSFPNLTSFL
# assay.text: Binding constant (Kd) measurement, phage-displayed kinase competition binding assay
# measurement.conditions: FLT3(DKIN) construct
assay.endpoint: Binding Assay: FLT3(DKIN)

Q: Recorded Binding Assay: FLT3(DKIN) of CC(C)(C)c1cc(NC(=O)Nc2ccc(NC(=O)c3cccc(SC(F)F)c3)cc2)no1 , please.
Ans: + + + +

Q: Recorded Binding Assay: FLT3(DKIN) of CC(C)(C)c1cc(NC(=O)Nc2ccc(OCCN3CCSCC3)cc2)no1 , please.
Ans: + + +

Q: Recorded Binding Assay: FLT3(DKIN) of CC(C)(C)c1cc(NC(=O)Nc2ccc(OCc3ccccc3)cc2)on1 , please.
Ans: + + + +

Q: Recorded Binding Assay: FLT3(DKIN) of CC(C)(C)c1cc(NC(=O)Nc2ccc(NC(=O)c3csc(-c4ccncc4)n3)cc2)no1 , please.
Ans: + + + +
